The origin of these recorded values is patent US9346761B2.

# studyTarget: Full-length human PRMT1 isoform 1 (Homo sapiens)
# Construct: GST-tagged PRMT1
# Sequence (Q99873 with tags, fused parts or gaps): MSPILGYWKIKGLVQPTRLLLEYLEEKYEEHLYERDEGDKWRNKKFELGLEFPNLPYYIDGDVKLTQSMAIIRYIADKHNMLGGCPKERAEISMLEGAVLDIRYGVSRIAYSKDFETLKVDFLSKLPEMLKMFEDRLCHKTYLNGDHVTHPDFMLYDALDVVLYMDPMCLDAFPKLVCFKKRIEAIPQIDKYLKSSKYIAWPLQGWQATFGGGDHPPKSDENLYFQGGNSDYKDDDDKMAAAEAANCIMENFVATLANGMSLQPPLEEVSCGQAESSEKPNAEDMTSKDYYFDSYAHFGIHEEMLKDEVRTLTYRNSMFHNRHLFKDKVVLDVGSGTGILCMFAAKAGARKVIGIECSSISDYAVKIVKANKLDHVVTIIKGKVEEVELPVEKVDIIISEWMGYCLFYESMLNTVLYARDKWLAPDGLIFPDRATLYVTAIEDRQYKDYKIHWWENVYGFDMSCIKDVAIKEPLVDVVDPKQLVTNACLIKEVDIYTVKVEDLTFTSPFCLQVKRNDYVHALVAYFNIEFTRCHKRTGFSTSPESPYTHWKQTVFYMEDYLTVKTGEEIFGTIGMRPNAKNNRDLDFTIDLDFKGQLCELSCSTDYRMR
# testName: PRMT1 biochemical assay (3H-SAM Flashplate, peptide substrate)
IC50 values, listed per item

{"columns": ["structureString", "IC50"],
 "data": [
  ["CC(C)CN(C)C(=O)c1ccc(-c2n[nH]cc2CN(C)CCN)cc1", "101 to 1000 nM"],
  ["CNCCN(C)Cc1c[nH]nc1-c1ccc(Cl)c(F)c1", "< 100 nM"],
  ["CN(CCN)Cc1c[nH]nc1-c1ccc(C(F)(F)F)cc1F", "101 to 1000 nM"],
  ["Cc1ccccc1-c1n[nH]cc1CN(C)CCN", "101 to 1000 nM"],
  ["C=CCn1cc(CN(C)CCNC)c(-c2ccc(OC(C)C)cc2)n1", "< 100 nM"],
  ["CN(CCN)Cc1c[nH]nc1-c1ccc(OCCO)cc1", "< 100 nM"],
  ["CCC(=O)N1CCN(c2ccc(-c3n[nH]cc3CN(C)CCN)cc2)CC1", "101 to 1000 nM"],
  ["COc1ccccc1-c1n[nH]cc1CN(C)CCN", "101 to 1000 nM"],
  ["CNCCN(C)Cc1c[nH]nc1-c1ccc(OCCCOC)c(Cl)c1", "< 100 nM"]
]}
